Where these numbers come from: the Human Domainome abundance scans (Beltran et al. 2025)

B1: Membrane-associated guanylate kinase, WW and PDZ domain-containing protein 2, residues 601 to 682; numbered along this chain, Q86UL8 (parent)
chain: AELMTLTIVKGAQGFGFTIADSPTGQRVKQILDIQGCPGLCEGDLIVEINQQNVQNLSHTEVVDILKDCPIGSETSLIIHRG

Variants of: B1
Assay: abundance fitness (aPCA) (normalised: wild type 0, dead -1); higher = more abundant; growth selection in yeast, the domain comes from the species named
Conditions: Homo sapiens
Can you tell me abundance fitness for the items I'm about to list?
Answers are plain numbers.

{"variantAnnotation": "V63W", "abundance fitness": -0.017}
{"variantAnnotation": "S76R", "abundance fitness": -0.021}
{"variantAnnotation": "Q55A", "abundance fitness": -0.069}
{"variantAnnotation": "G39S", "abundance fitness": -0.035}
{"variantAnnotation": "T60K", "abundance fitness": -0.003}
{"variantAnnotation": "H59T", "abundance fitness": -0.132}
{"variantAnnotation": "H59G", "abundance fitness": -0.018}
{"variantAnnotation": "H59Y", "abundance fitness": -0.109}
{"variantAnnotation": "N50C", "abundance fitness": -0.71}
{"variantAnnotation": "C37S", "abundance fitness": 0.012}

Could you report abundance fitness for every entry in the following list?
1. P70S
2. S76H
3. V54T
4. P23Q
5. T75D

Result:
1. -0.001
2. -0.668
3. -0.037
4. -0.029
5. -0.09

Quick one: give me abundance fitness for each item below, same order please.
1. Q26V
2. I49F
3. P70W
4. I19A

Result:
1: -0.025; 2: -0.065; 3: -0.087; 4: -0.542
